Provenance of the data: the array DNA melting data of Ke et al. (doi:10.1101/2024.01.08.574731)

Assay: folding enthalpy; higher = less favourable; fluorescence melt of hairpins on a sequencing array, two-state fit
Settings: sodium 0.088 M
observation_type: folding enthalpy (kcal/mol)
Just the number in kcal/mol, nothing appended.

A selection of reference data follows.
GGCGGAGGAAACTTCGCC ((((.((....)).)))) : -49.2
GAAACAGGAAACTGTTTC (((((((....))))))) : -41.9
GATACACGAAAGTGATC (((.(((....)))))) : -12.4

Pending sequence:
Note to self: folding enthalpy recorded for GTTGTTACGAAAGTAAAC (((..(((....)))))) was -27.2

###

Test: folding enthalpy; higher = less favourable; fluorescence melt of hairpins on a sequencing array, two-state fit
Conditions: sodium 0.088 M
// label = yes (1) if folding enthalpy is not less than -30 kcal/mol, otherwise no (0)

Use the examples below as a reference point.
GTATACGGAAACGTATGC (.(((((....))))).) : yes (1)
GACAGGGGAAACTCTGTC (((((.(....).))))) : no (0)
GGCTTCGCGAAAGCGGCC (((..(((....)))))) : yes (1)

Here is the next item to consider.
Answer whether folding enthalpy of GAAGATGAAAATCTTC ((((((....)))))) is greater than or equal to -30 kcal/mol.
yes (1)
